# Tested on: NCI-H226
# experimentNotes: NCI tumour cell line growth inhibition, 48 h
The source made the active and inactive calls. Rule as the data show it: active = GI50 up to about 1.1 µM and inactive = higher.
Tick one outcome: Y for active, N for inactive

Answered examples (5):
molecule="c1nncn1C12C3C4C5C3C1C5C42 (stereo not given)" labelclass=N
molecule=C=C(CBr)CCCOCc1ccccc1 labelclass=N
molecule="COC(=O)C(/C(=N\\O)C(=O)Nc1ccc(Br)cc1)c1nc2ccccc2nc1O (stereo not given)" labelclass=N
molecule="C=C1CC2CC[C@@]34C[C@H]5O[C@@H]6C(O[C@H]7CC[C@H](CC(=O)OC8[C@H](C)C9OC%10C[C@]%11(C[C@@H]%12O[C@]%13(C[C@H](C)[C@@H]%14O[C@H]([C@H](O)C[C@H](O)CO)C[C@@H]%14O%13)C[C@H](C)[C@@H]%12O%11)OC%10CC9O[C@H]8C[C@H]8O[C@H](CC[C@@H]1O2)C[C@@H](C)C8=C)O[C@H]7[C@@H]6O3)[C@@H]5O4 (stereo not given in full)" labelclass=Y
molecule=Cn1c(=O)nc2n(-c3cc(Cl)ccc3Cl)c3ccccc3nc-2c1=O labelclass=N

Please state the recorded outcome for this molecule: CC(=O)OCC1OC(SC2OC(COC(C)=O)C(OC(C)=O)C(OC(C)=O)C2OC(C)=O)C(OC(C)=O)C(OC(C)=O)C1OC(C)=O (stereo not given)
N

Which outcome did this test record for the molecule CCOC(=O)Nn1c(CC#N)nnc1Cc1ccccc1 ?
N

----------
# System: SF-295
# experimentNotes: NCI tumour cell line growth inhibition, 48 h
Active and inactive are the calls of the source. Cut-off read from the data, not from the text of the source: active = GI50 up to about 1.1 µM and inactive = higher.
measuredQuantity: GI50

compound="Cc1ccc(S(=O)OCc2c(C)c(C)c(COS(=O)c3ccc(C)cc3)c(C)c2C)cc1 (stereo not given)" measuredvalue="> 100 µM (inactive)"
compound="CC1=C(C)CC2C(=O)N(c3cc(C(C)(C)C)ccc3C(C)(C)C)C(=O)C2C1 (stereo not given)" measuredvalue="48.2 µM (inactive)"
compound="O=C(CC(O)(C(F)(F)F)C(F)(F)F)C(c1ccccc1)C(O)(C(F)(F)F)C(F)(F)F (stereo not given)" measuredvalue="40 µM (inactive)"
compound="COc1cc2c(cc1OC)C1=C(C=O)c3ccc(OC)c(OC)c3C(O)N1CC2 (stereo not given)" measuredvalue="24 µM (inactive)"
compound=Cc1ccc(-c2cc(=O)c(=O)[nH][nH]2)cc1 measuredvalue="> 100 µM (inactive)"

What reported GI50 corresponds to ClC[Si]12OCCN(CCO1)CCO2 on SF-295?
> 100 µM (inactive)

Notebook: pull reported GI50 for SF-295, entry COc1ccc(NC(=O)c2cc(OC)c(OC)c(OC)c2)cc1
36.1 µM (inactive)

GET /values?readout=GI50&system=SF-295&item= CC(=O)OC(C)(C)[C@H]1O[C@]23O[C@]1(C)C[C@@H](C)[C@@H]2[C@@]1(C)CC[C@@]24C[C@@]25CC[C@H](O[C@@H]2OC[C@@H](O)[C@H](O)[C@H]2O)C(C)(C)[C@@H]5CC[C@H]4[C@]1(C)[C@H]3O
8 µM (inactive)

So what GI50 did CCOC(=O)/C1=C(\C)N(c2ccc(C)cc2)C(=O)c2ccccc2C(=O)c2c(O)ccc(O)c21 get with SF-295?
16.9 µM (inactive)

Identify the measured GI50 of Cc1nc(Nc2ccc(Cl)c(Cl)c2)sc1C(=O)/C=C/c1ccc2c(c1)OCO2 for SF-295.
20 µM (inactive)
